Consider the following variants; for each one, report its yeast fitness.
B1: tRNA (parent)
chain: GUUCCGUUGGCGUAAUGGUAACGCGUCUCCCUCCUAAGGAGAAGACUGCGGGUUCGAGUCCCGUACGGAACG

Variants of: B1
Assay: yeast fitness relative to wild type (ratio to wild type); higher = fitter; tRNA-Arg(CCU), competitive growth, 37 C, YPD
Variants at the floor of the assay were thinned out.

> print(dat)
   mutationstring  recordedmeasurement
1  G56C A65G A70U                0.587
2  G25A C34A A40U                ≤ 0.5
3    C5G U8C G41A                ≤ 0.5

(Q) I am curious: what yeast fitness value has been reported for C22G C24A G38A G44C U59A ?
(A) ≤ 0.5
